# assay-notes: inducers of TAG accumulation in Chlamydomonas, primary screen, qHTS, Chlamydomonas reinhardtii (AID 1159537);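 note: hits raise Nile Red signal meaning more stored TAG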
# stated-conditions: Nile Red fluorescence, 72 h
The campaign covered roughly 44,000 compounds. About 370 (0.84%) were called active. The rule behind the calls is not given here. What follows is part of a selection rich in actives, with near analogues and random picks from the rest.
Outcome codes: active, inactive

N#CC(/C=C/c1ccccc1)N1CCOCC1 (centres undefined): inactive
CCN(CC)CCNc1ccc([N+](=O)[O-])c2cccnc12: inactive
O=[N+]([O-])c1ccc(CN2CCN(c3cccc(Cl)c3)CC2)cc1: inactive
Fc1cccc(Cl)c1CN1CCN(c2ccccc2)CC1: inactive
CCN1CCN(CC2=CC[C@H]3C[C@@H]2C3(C)C)CC1: inactive
CN1CCCN(CC2=CC[C@H]3C[C@@H]2C3(C)C)CC1: active
CCC1(c2ccccc2)C(=O)NC(=O)N(C)C1=O (centres undefined): inactive
CCN(CC)CC#CCOc1ccccc1: active
Nc1ccc(-c2ccc(N)c(N)c2)cc1N: inactive
